TEST_TARGET: HLA-A*01:01
ASSAY_PROCEDURE: IEDB peptide-MHC binding, purified MHC/competitive/radioactivity; filed as Kd, often an IC50 or EC50 that approximates it; bounds were set here for any values at or beyond the usual limits of such assays
STUDY_CONDITIONS: source organism: Dengue virus 3 Martinique/1243/1999
Kd by entry:
Write it as a number; the unit µM goes unstated.

For orientation, consider the following solved cases.
sequence=VTTWENVPYL unit_label=µM result=11.3
sequence=LTLTAAVLLL unit_label=µM result=13.9

As a next step, examine the sequence that follows.
Task: Please report the recorded Kd for TTEAILPEY .
Result: 0.0306
